ASSAY TARGET: dopamine D1 receptor (Homo sapiens, UniProt P21728)
Sequence (P21728 whole entry): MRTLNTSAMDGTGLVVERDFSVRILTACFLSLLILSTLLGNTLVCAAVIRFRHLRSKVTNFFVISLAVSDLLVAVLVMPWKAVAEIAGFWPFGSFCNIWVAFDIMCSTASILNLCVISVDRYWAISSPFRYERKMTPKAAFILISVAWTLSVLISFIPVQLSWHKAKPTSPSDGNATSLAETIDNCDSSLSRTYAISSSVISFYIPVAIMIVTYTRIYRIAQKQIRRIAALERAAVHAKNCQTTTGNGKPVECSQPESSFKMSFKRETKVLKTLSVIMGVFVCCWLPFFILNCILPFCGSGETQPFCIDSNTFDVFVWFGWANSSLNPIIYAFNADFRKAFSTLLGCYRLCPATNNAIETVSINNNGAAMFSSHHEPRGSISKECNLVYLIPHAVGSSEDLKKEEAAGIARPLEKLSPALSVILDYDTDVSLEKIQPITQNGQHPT
PROCEDURE TEXT: cAMP HTRF potentiation assay (presence of EC20 dopamine)
CONDITION: potentiation of cAMP in presence of EC20 dopamine (1.1 nM); LMtk (Ltk-) mouse fibroblast cells expressing the dopamine D1 receptor
Let's look at some compounds and their measured EC50.

{"COMPOUND": "C[C@H]1c2cccc([C@](C)(O)CF)c2CCN1C(=O)Cc1c(Cl)ccc2[nH]nc(Cl)c12", "EC50": "≤ 31.6 nM"}
{"COMPOUND": "C[C@H]1c2cccc([C@](C)(O)CF)c2CCN1C(=O)Cc1c(Cl)ccc2c1c(Cl)nn2C", "EC50": "31.6 to 100 nM"}
{"COMPOUND": "C[C@H]1c2cccc(C(C)(O)C(F)F)c2CCN1C(=O)Cc1c(Cl)cnc2[nH]nc(Cl)c12 (single isomer, unassigned)", "EC50": "≤ 31.6 nM"}
{"COMPOUND": "C[C@H]1c2cccc([C@](C)(O)CF)c2CCN1C(=O)Cc1c(Cl)cnc2[nH]nc(Cl)c12", "EC50": "≤ 31.6 nM"}
{"COMPOUND": "C[C@H]1c2cccc([C@](C)(O)CF)c2CCN1C(=O)Cc1c(Cl)ccn2ncc(Cl)c12", "EC50": "≤ 31.6 nM"}
{"COMPOUND": "C[C@H]1c2cccc([C@H](O)C(F)F)c2CCN1C(=O)Cc1c(Cl)ccc2onc(Cl)c12", "EC50": "≤ 31.6 nM"}
{"COMPOUND": "C[C@H]1c2cccc(C(O)(CF)CF)c2CCN1C(=O)Cc1c(Cl)cnc2c1c(Cl)nn2C", "EC50": "31.6 to 100 nM"}
{"COMPOUND": "C[C@H]1c2cccc([C@H](O)C(F)F)c2CCN1C(=O)Cc1c(Cl)ccc2[nH]nc(Cl)c12", "EC50": "≤ 31.6 nM"}
{"COMPOUND": "C[C@H]1c2cccc([C@@H](O)C(F)F)c2CCN1C(=O)Cc1c(Cl)ccc2c1c(Cl)nn2C", "EC50": "31.6 to 100 nM"}
{"COMPOUND": "C[C@H]1c2cccc([C@@H](O)C(F)F)c2CCN1C(=O)Cc1c(Cl)ccc2nn(C)c(Cl)c12", "EC50": "≤ 31.6 nM"}
{"COMPOUND": "C[C@H]1c2cccc([C@@](C)(O)CF)c2CCN1C(=O)Cc1c(Cl)cnc2c1c(Cl)nn2C", "EC50": "31.6 to 100 nM"}
{"COMPOUND": "C[C@H]1c2cccc(C(C)(O)C(F)F)c2CCN1C(=O)Cc1c(Cl)c(C2CC2)cn2ncc(Cl)c12 (single isomer, unassigned)", "EC50": "31.6 to 100 nM"}
{"COMPOUND": "C[C@H]1c2cccc([C@H](O)C(F)F)c2CCN1C(=O)Cc1c(Cl)ccn2ncc(Cl)c12", "EC50": "≤ 31.6 nM"}
{"COMPOUND": "C[C@H]1c2cccc(C(C)(O)C(F)F)c2CCN1C(=O)Cc1c(Cl)c(C#N)cn2ncc(Cl)c12 (single isomer, unassigned)", "EC50": "≤ 31.6 nM"}
{"COMPOUND": "C[C@H]1c2cccc(C(C)(O)C(F)F)c2CCN1C(=O)Cc1c(Cl)ccc2[nH]nc(Cl)c12 (single isomer, unassigned)", "EC50": "≤ 31.6 nM"}
{"COMPOUND": "C[C@H]1c2cccc(C(C)(O)C(F)F)c2CCN1C(=O)Cc1c(Cl)ccc2c1c(Cl)nn2C (single isomer, unassigned)", "EC50": "31.6 to 100 nM"}
{"COMPOUND": "C[C@H]1c2cccc(C(C)(O)C(F)F)c2CCN1C(=O)Cc1c(Cl)cnc2c1c(Cl)nn2C (single isomer, unassigned)", "EC50": "≤ 31.6 nM"}
{"COMPOUND": "C[C@H]1c2cccc([C@H](O)C(F)F)c2CCN1C(=O)Cc1c(Cl)ccc2c1c(Cl)nn2C", "EC50": "31.6 to 100 nM"}
{"COMPOUND": "C[C@H]1c2cccc([C@H](O)C(F)F)c2CCN1C(=O)Cc1c(Cl)ccc2nn(C)c(Cl)c12", "EC50": "31.6 to 100 nM"}
{"COMPOUND": "C[C@H]1c2cccc([C@@H](O)C(F)F)c2CCN1C(=O)Cc1c(Cl)ccc2[nH]nc(Cl)c12", "EC50": "≤ 31.6 nM"}
{"COMPOUND": "C[C@H]1c2cccc([C@@](C)(O)CF)c2CCN1C(=O)Cc1c(Cl)ccc2[nH]nc(Cl)c12", "EC50": "≤ 31.6 nM"}
{"COMPOUND": "C[C@H]1c2cccc([C@@](C)(O)CF)c2CCN1C(=O)Cc1c(Cl)ccc2c1c(Cl)nn2C", "EC50": "31.6 to 100 nM"}
{"COMPOUND": "C[C@H]1c2cccc(C(O)(CF)CF)c2CCN1C(=O)Cc1c(Cl)ccc2c1c(Cl)nn2C", "EC50": "≤ 31.6 nM"}
{"COMPOUND": "C[C@H]1c2cccc([C@@](C)(O)CF)c2CCN1C(=O)Cc1c(Cl)cnc2[nH]nc(Cl)c12", "EC50": "≤ 31.6 nM"}
{"COMPOUND": "C[C@H]1c2cccc(C(C)(O)C(F)F)c2CCN1C(=O)Cc1c(Cl)ccc2nn(C)c(Cl)c12 (single isomer, unassigned)", "EC50": "31.6 to 100 nM"}
{"COMPOUND": "C[C@H]1c2cccc([C@](C)(O)CF)c2CCN1C(=O)Cc1c(Cl)cnc2c1c(Cl)nn2C", "EC50": "≤ 31.6 nM"}
{"COMPOUND": "C[C@H]1c2cccc(C(O)(CF)CF)c2CCN1C(=O)Cc1c(Cl)cnc2[nH]nc(Cl)c12", "EC50": "31.6 to 100 nM"}
